Cited source for all entries: paper PMC8570331

experiment: Proton dissociation constants of the ligands (pH-potentiometry, UV-vis, 1H NMR titrations)
Format: physicochemical
reported conditions: aqueous solution, 1H NMR; I = 0.2 M KNO3; T = 25.0 °C; read-out: pKa (NqH+)
Experimental: pH-potentiometric measurements were carried out at 25.0 ± 0.1 °C in water in the pH range between 2.0 and 11.5 and at a constant ionic strength of 0.2 M KNO3. The titrations were performed in a carbonate-free KOH solution (0.20 M). The exact concentrations of HNO3 and KOH solutions were determined by pH-potentiometric titrations. […] The average water ionization constant, pKw, was determined as 13.76 ± 0.01, which is in good agreement with the literature data. […]
measured property: pKa

In [3]: df
Out[3]:
                                   molecule  measured_property  reported_measurement
0  O=C(O)[C@H]1CCCN1Cc1cc(Cl)c2cccnc2c1O [HQCl-D-Pro]                pKa                  2.32
1  O=C(O)[C@H]1CCCCN1Cc1cc(Cl)c2cccnc2c1O [HQCl-D-hPro]                pKa                  2.52

* * *

measured target: HSA site II (subdomain IIIA) (Homo sapiens)
Construct: purchased Sigma-Aldrich A8763
Sequence (P02768 25-609): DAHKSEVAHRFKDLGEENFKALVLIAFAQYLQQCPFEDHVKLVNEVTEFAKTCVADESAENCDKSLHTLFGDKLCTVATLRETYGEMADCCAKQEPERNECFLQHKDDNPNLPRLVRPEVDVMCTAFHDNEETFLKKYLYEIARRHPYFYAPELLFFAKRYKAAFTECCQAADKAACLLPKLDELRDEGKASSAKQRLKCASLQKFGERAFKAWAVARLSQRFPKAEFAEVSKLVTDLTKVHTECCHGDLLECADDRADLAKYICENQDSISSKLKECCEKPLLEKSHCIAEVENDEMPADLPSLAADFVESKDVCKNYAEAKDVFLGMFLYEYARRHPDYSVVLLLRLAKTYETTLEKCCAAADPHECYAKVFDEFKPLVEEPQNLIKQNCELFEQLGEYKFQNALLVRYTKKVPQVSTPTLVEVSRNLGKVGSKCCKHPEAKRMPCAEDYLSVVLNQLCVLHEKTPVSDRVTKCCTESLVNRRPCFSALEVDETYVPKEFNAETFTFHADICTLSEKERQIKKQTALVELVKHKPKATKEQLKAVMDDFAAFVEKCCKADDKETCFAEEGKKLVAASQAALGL
experiment: Dansylglycine (DG) site marker displacement, spectrofluorometry
Assay type: binding
reported conditions: cHSA = 1 µM, cDG = 1 µM, pH 7.4 (PBS’)
measured property: DG Displacement logKDG′, Site II

compound	reported measurement
Cc1c(C)c(C)[c-](C)c1C.O=C(O)[C@H]1CCCC[NH+]1Cc1cc(Cl)c2cccnc2c1[O-].[Cl-].[Cl-].[Rh+3] [RhCp*–HQCl-D-hPro, [RhCp*(HQCl-D-hPro)Cl]Cl]	5.4
Cc1ccc(C(C)C)cc1.O=C(O)[C@H]1CCC[NH+]1Cc1cc(Cl)c2cccnc2c1[O-].[Cl-].[Cl-].[Ru+2] [RuCym–HQCl-D-Pro, [RuCym(HQCl-D-Pro)Cl]Cl]	5.6
Cc1c(C)c(C)[c-](C)c1C.O=C(O)[C@H]1CCC[NH+]1Cc1cc(Cl)c2cccnc2c1[O-].[Cl-].[Cl-].[Rh+3] [RhCp*–HQCl-D-Pro, [RhCp*(HQCl-D-Pro)Cl]Cl]	5.5
Cc1ccc(C(C)C)cc1.O=C(O)[C@H]1CCCC[NH+]1Cc1cc(Cl)c2cccnc2c1[O-].[Cl-].[Cl-].[Ru+2] [RuCym–HQCl-D-hPro, [RuCym(HQCl-D-hPro)Cl]Cl]	5.7

* * *

Tested on: Ac-Phe–His–Ala-NH2 (FHA)
experiment: Binding to the His model tripeptide FHA by 1H NMR
reported conditions: pH 7.4 (PBS’), 0.5 or 1 mM

molecule	FHA logKFHA′
Cc1c(C)c(C)[c-](C)c1C.O=C(O)[C@H]1CCCC[NH+]1Cc1cc(Cl)c2cccnc2c1[O-].[Cl-].[Cl-].[Rh+3] [RhCp*–HQCl-D-hPro, [RhCp*(HQCl-D-hPro)Cl]Cl]	4.5
Cc1ccc(C(C)C)cc1.O=C(O)[C@H]1CCCC[NH+]1Cc1cc(Cl)c2cccnc2c1[O-].[Cl-].[Cl-].[Ru+2] [RuCym–HQCl-D-hPro, [RuCym(HQCl-D-hPro)Cl]Cl]	4.6
Cc1ccc(C(C)C)cc1.O=C(O)[C@H]1CCC[NH+]1Cc1cc(Cl)c2cccnc2c1[O-].[Cl-].[Cl-].[Ru+2] [RuCym–HQCl-D-Pro, [RuCym(HQCl-D-Pro)Cl]Cl]	4.4
Cc1c(C)c(C)[c-](C)c1C.O=C(O)[C@H]1CCC[NH+]1Cc1cc(Cl)c2cccnc2c1[O-].[Cl-].[Cl-].[Rh+3] [RhCp*–HQCl-D-Pro, [RhCp*(HQCl-D-Pro)Cl]Cl]	4.4
